- assayed.target: T1, Mouse ASGR-1 (mouse, UniProt P34927 1-284)
- T1 construct: Expressed on HEK 293 cells or as membrane prep on beads; cDNA GenBank BC022106.1; also called muASGR-1; mASGR-1
- T1 sequence: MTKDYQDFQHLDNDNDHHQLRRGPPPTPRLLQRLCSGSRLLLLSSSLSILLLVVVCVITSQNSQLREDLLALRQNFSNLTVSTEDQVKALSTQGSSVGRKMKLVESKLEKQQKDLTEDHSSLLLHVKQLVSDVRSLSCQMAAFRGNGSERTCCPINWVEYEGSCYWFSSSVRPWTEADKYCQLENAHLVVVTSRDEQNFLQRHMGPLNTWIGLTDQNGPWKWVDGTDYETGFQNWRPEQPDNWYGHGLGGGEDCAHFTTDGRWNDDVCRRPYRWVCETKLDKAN
- assay.name: FACS on transfected HEK 293 cells or membrane preps on beads; binding = signal at least 2x irrelevant IgG

>  <binder>
202A3 (antibody, V domains shown, Tested as hybridoma supernatant at normalized concentration) VH: QVQLEQSGAEVKKPGASVKVSCKASGYTFTSYDINWVRQATGQGLEWLGWMNPKRGNTGYAQKFQGRVTMTRNTSISTAHMELSSLRSEDTAVYYCARGRYSREDYYYYYDMDVWGQGTTVTVSS VL: DIQMSQSPSSLSASVGDRVTITCRASQGIRNDLGWYQQKPGKAPKRLICAASRLQSGVPSRFSGSGSGTEFTLTISSLQPEDFAIYYCLQHHDYPFTFGPGTKVDIK

>  <binding result>
no binding

$$$$
>  <binder>
75G3 (antibody, V domains shown, Tested as hybridoma supernatant at normalized concentration) VH: QVQLQQWGAGLLKPSETLSLTCAVYGGSLSGSYWSWIRQPPGKGLEWIGEINLSGSTNYNPSLKSRVTISVDTSKSQFSLTLRSVTAADTAVYYCARDYGGLDYWGQGTLVTVSS VL: EIVLTQSPGTLSLSPGERATLSCRARQNVDSSYLAWYQQKPGQAPRLLIYGASSRATGIPDRFSGSGSGTDFTLTISRLEPEDFAVFYCQQYERSPWTFGQGTKVEIK

>  <binding result>
no binding

$$$$
>  <binder>
193E7 (antibody, V domains shown, Tested as hybridoma supernatant at normalized concentration) VH: QVQLQQWGAGLLKPSETLSLTCAVYGGSFSGYFWTWIRQPPGKGLEWIGEINHSGSTNYNPSLKSRVTISVDTSKNQFSLKLSSVTAADTAVYYCARDYGADYWGQGTLVAVSA VL: DIQMTQSPSSLSASVGDRVTITCRASQGIRNDLGWYQQKPGKAPKRLIYSASSLQRGVPSRFSGSGSGTEFTLTISSLQPEDFATYYCLQHKRYPLTFGGGTKVEIK

>  <binding result>
no binding

$$$$
